Molecular target: T1, Human CD19-his protein (human, UniProt P15391 20-291)
T1 construct: bought protein; also called human CD19 protein; recombinant human CD19-His; not shown: His tag
T1 sequence (looked up): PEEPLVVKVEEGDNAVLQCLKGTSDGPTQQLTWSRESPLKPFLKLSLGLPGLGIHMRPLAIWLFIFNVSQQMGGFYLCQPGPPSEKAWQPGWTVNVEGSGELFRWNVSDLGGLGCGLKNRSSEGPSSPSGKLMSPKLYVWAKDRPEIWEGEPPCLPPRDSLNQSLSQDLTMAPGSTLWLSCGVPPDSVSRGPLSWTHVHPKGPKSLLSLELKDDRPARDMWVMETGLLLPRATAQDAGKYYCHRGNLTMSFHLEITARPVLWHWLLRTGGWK
Test: ELISA, antibody at 0.01 nM
Consider the following binders; for each one, report its OD450.
Please reply with the value in numeric form only.

q: Find the measured OD450 of F4.152.7 (antibody, human IgG1, V domains shown, human-murine chimeric antibody, human IgG1) VH: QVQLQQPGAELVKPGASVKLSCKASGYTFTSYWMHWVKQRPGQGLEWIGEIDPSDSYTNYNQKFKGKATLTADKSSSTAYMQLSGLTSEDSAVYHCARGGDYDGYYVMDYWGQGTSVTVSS VL: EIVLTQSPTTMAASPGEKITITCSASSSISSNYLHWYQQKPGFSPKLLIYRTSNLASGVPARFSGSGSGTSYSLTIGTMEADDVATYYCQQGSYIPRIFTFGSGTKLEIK and report it.
a: 0.26

q: In one line, give reported OD450 of the entry F5.10.6 (antibody, human IgG1, V domains shown, human-murine chimeric antibody, human IgG1) VH: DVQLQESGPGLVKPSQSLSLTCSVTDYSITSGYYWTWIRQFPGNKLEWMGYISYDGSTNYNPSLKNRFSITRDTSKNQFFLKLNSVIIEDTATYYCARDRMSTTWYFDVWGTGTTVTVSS VL: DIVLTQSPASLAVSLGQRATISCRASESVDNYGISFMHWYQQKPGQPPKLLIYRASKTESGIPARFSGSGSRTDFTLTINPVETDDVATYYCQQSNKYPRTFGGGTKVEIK .
a: 0.15

q: Supply recorded OD450 for F4.96.6 (antibody, human IgG1, V domains shown, human-murine chimeric antibody, human IgG1) VH: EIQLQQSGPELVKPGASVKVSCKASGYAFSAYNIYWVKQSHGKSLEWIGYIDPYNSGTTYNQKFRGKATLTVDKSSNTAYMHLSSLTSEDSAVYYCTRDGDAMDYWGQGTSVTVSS VL: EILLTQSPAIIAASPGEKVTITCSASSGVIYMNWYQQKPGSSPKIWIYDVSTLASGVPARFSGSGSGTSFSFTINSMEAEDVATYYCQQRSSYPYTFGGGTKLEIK here.
a: 0.11

q: Dear colleague, please send me the reported OD450 for F4.35.5 (antibody, human IgG1, V domains shown, human-murine chimeric antibody, human IgG1) VH: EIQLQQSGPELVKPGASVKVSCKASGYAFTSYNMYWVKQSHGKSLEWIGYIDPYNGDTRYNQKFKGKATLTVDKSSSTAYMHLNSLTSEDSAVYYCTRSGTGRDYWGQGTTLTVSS VL: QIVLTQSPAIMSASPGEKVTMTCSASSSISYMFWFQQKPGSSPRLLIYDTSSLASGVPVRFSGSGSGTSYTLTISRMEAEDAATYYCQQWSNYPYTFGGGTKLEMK when you can.
a: 0.07

q: Find the measured OD450 of F5.2.9 (antibody, human IgG1, V domains shown, human-murine chimeric antibody, human IgG1) VH: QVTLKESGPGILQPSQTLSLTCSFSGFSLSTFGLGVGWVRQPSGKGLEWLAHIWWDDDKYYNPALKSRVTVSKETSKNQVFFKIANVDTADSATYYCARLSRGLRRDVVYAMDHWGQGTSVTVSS VL: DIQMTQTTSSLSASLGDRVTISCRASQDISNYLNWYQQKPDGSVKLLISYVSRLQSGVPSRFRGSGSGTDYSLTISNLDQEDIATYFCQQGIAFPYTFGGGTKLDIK and report it.
a: 0.29

Source of measurements: patent US20250042994A1
